From: paper PMC5713674

Exercise: state measured k a for each of the compounds provided.
# Test system: cetuximab
# method: Surface plasmon resonance (Biacore T100) binding kinetics of meditope variants to immobilised cetuximab IgG
# conditions: SPR, 25°C, pH 7.4, HBS-EP+
Numbers only, in M^−1 s^−1 × 10^4.

>>> endpoint_value("CC(C)C[C@@H]1NC(=O)[C@H](CCCNC(=N)N)NC(=O)[C@H](CCCNC(=N)NCCCN)NC(=O)[C@H]([C@@H](C)O)NC(=O)[C@H](CO)NC(=O)[C@H](CC(C)C)NC(=O)[C@H](CC(=O)O)NC(=O)[C@H](Cc2ccccc2)NC(=O)[C@H](CCC(N)=O)NC(=O)CCCCCCNC(=O)[C@H](CCCCN)NC1=O")
1.2

State recorded k a for all listed compounds.
1. CC(C)C[C@@H]1NC(=O)[C@H](CCCNC(=N)N)NC(=O)[C@H](CCCNC(=N)NCCCO)NC(=O)[C@H]([C@@H](C)O)NC(=O)[C@H](CO)NC(=O)[C@H](CC(C)C)NC(=O)[C@H](CC(=O)O)NC(=O)[C@H](Cc2ccccc2)NC(=O)[C@H](CCC(N)=O)NC(=O)CCCCCCNC(=O)[C@H](CCCCN)NC1=O
2. CC(C)C[C@@H]1NC(=O)[C@H](CCCNC(=N)N)NC(=O)[C@H](CCCNC(=N)N)NC(=O)[C@H]([C@@H](C)O)NC(=O)[C@H](CO)NC(=O)[C@H](CC(C)C)NC(=O)[C@H](CC(=O)O)NC(=O)[C@H](Cc2ccccc2)NC(=O)[C@H](CCC(N)=O)NC(=O)CCCCCCNC(=O)[C@H](CCCCN)NC1=O [reference compound]
3. CCCCNC(=N)NCCC[C@@H]1NC(=O)[C@H]([C@@H](C)O)NC(=O)[C@H](CO)NC(=O)[C@H](CC(C)C)NC(=O)[C@H](CC(=O)O)NC(=O)[C@H](Cc2ccccc2)NC(=O)[C@H](CCC(N)=O)NC(=O)CCCCCCNC(=O)[C@H](CCCCN)NC(=O)[C@H](CC(C)C)NC(=O)[C@H](CCCNC(=N)N)NC1=O
4. CCCCCCCCNC(=N)NCCC[C@@H]1NC(=O)[C@H]([C@@H](C)O)NC(=O)[C@H](CO)NC(=O)[C@H](CC(C)C)NC(=O)[C@H](CC(=O)O)NC(=O)[C@H](Cc2ccccc2)NC(=O)[C@H](CCC(N)=O)NC(=O)CCCCCCNC(=O)[C@H](CCCCN)NC(=O)[C@H](CC(C)C)NC(=O)[C@H](CCCNC(=N)N)NC1=O

**Result**
[1.2, 2.5, 2.2, 0.93]

---

# assayed-target: cetuximab
# method: Surface plasmon resonance (Biacore T100) binding kinetics of meditope variants to immobilised cetuximab IgG
# conditions: SPR, 25°C, pH 7.4, HBS-EP+
Exercise: state measured k d for each of the molecules provided.
Write your answer as a measured quantity: the number, then the unit.

# example entries with known answers
>>> endpoint_value("CCCCNC(=N)NCCC[C@@H]1NC(=O)[C@H]([C@@H](C)O)NC(=O)[C@H](CO)NC(=O)[C@H](CC(C)C)NC(=O)[C@H](CC(=O)O)NC(=O)[C@H](Cc2ccccc2)NC(=O)[C@H](CCC(N)=O)NC(=O)CCCCCCNC(=O)[C@H](CCCCN)NC(=O)[C@H](CC(C)C)NC(=O)[C@H](CCCNC(=N)N)NC1=O [(AHA)QFDLSTR(nBu)RLK]")
"0.060 s⁻¹"
>>> endpoint_value("CC(C)C[C@@H]1NC(=O)[C@H](CCCNC(=N)N)NC(=O)[C@H](CCCNC(=N)NCCCO)NC(=O)[C@H]([C@@H](C)O)NC(=O)[C@H](CO)NC(=O)[C@H](CC(C)C)NC(=O)[C@H](CC(=O)O)NC(=O)[C@H](Cc2ccccc2)NC(=O)[C@H](CCC(N)=O)NC(=O)CCCCCCNC(=O)[C@H](CCCCN)NC1=O [(AHA)QFDLSTR(PrOH)RLK]")
"0.027 s⁻¹"
>>> endpoint_value("CC(C)C[C@@H]1NC(=O)[C@H](CCCNC(=N)N)NC(=O)[C@H](CCCNC(=N)N)NC(=O)[C@H]([C@@H](C)O)NC(=O)[C@H](CO)NC(=O)[C@H](CC(C)C)NC(=O)[C@H](CC(=O)O)NC(=O)[C@H](Cc2ccccc2)NC(=O)[C@H](CCC(N)=O)NC(=O)CCCCCCNC(=O)[C@H](CCCCN)NC1=O [reference compound]")
"0.046 s⁻¹"

State recorded k d for all listed molecules.
1. CCCCCCCCNC(=N)NCCC[C@@H]1NC(=O)[C@H]([C@@H](C)O)NC(=O)[C@H](CO)NC(=O)[C@H](CC(C)C)NC(=O)[C@H](CC(=O)O)NC(=O)[C@H](Cc2ccccc2)NC(=O)[C@H](CCC(N)=O)NC(=O)CCCCCCNC(=O)[C@H](CCCCN)NC(=O)[C@H](CC(C)C)NC(=O)[C@H](CCCNC(=N)N)NC1=O [(AHA)QFDLSTR(nOc)RLK]
2. CC(C)C[C@@H]1NC(=O)[C@H](CCCNC(=N)N)NC(=O)[C@H](CCCNC(=N)NCCCN)NC(=O)[C@H]([C@@H](C)O)NC(=O)[C@H](CO)NC(=O)[C@H](CC(C)C)NC(=O)[C@H](CC(=O)O)NC(=O)[C@H](Cc2ccccc2)NC(=O)[C@H](CCC(N)=O)NC(=O)CCCCCCNC(=O)[C@H](CCCCN)NC1=O [(AHA)QFDLSTR(PrNH2)RLK]

**Result**
1: 0.079 s⁻¹; 2: 0.110 s⁻¹
